Target: T1, human PTK7, full length, expressed on transduced cells (human, UniProt Q13308 31-1070)
T1 sequence: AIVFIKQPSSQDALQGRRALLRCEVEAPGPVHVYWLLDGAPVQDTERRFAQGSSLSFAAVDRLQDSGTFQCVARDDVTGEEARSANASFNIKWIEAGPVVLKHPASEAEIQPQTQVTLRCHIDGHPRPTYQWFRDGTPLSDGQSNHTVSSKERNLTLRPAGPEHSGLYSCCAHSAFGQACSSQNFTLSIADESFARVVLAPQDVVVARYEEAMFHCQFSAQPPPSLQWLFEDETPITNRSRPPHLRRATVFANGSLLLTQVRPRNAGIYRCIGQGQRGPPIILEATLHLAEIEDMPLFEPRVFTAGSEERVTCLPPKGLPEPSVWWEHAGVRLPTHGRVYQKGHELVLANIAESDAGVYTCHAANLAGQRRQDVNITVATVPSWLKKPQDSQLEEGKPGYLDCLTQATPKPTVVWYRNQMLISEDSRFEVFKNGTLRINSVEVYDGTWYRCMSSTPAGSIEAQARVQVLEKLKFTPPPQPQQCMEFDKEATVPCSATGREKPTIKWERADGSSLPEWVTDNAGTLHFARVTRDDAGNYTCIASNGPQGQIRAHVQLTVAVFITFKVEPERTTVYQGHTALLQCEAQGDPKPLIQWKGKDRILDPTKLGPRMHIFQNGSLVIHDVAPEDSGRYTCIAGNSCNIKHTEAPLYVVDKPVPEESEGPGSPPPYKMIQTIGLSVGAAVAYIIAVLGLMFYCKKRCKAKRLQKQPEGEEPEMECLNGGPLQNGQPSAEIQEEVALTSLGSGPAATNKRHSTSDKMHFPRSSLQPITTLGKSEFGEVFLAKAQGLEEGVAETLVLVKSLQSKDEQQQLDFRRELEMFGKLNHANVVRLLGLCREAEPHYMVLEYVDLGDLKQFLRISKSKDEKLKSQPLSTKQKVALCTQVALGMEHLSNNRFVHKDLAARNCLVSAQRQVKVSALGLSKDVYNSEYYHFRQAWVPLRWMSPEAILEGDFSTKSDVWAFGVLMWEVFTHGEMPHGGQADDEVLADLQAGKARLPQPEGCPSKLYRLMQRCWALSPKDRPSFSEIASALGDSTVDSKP
Test: cell-based or functional assay
recorded-endpoint: EC50, saporin (Fab-ZAP) cell killing, 293.PTK7 Cells

(Q) Requested field: EC50, saporin (Fab-ZAP) cell killing, 293.PTK7 Cells. Item: SC6.10.2 (antibody, V domains shown, Murine monoclonal antibody from a hybridoma; also called H10.2; H10) VH: QVQLQQSGAELVRPGVSVKISCKGSGYRFTDYPIHWVKQSHAKSLEWIGIISTYYGDVTNNPKFRGKATMTVDKSSTTAYMELARLTSEDSAIYYCARNDLFAYWGQGTLVTVSA VL: DIVMTQSQKFMSTSVGDRVNVTCKASQNVGTNVVWYQQKTGQSPKALIHSASYRYSGVPDRFTGSGSGTDFTLTLSNVQSEDLAEYFCQHYNSFPYTFGGGTKLEIKR
(A) 1.1 pM

Values from patent US20180162952A1
